Measured values drawn from patent US9481671B2 for this set.

Test system: GM3
Assay: GM3 Elisa Assay (B16-FO cells)
Assay type: cell-based
Conditions: 48 h, Table 3, 2 days with compound, read-out: IC50_uM_Mean
Catalogue of IC50 readings, one per entry.

O=C(CCCc1nc(C2CC2)no1)N[C@H](CN1CCCC1)[C@H](O)c1ccc2c(c1)OCCO2 [Compound 648]: 1000 to 3000 nM

Enquiry: What value of measured IC50 is listed for Cc1noc(CCCCC(=O)N[C@H](CN2CCCC2)[C@H](O)c2ccc3c(c2)OCCO3)n1 [Compound 649] ?
Return: 3000 to 10000 nM
